biological target: Legumain (Homo sapiens); assay: Inhibition of recombinant human legumain using Z-Ala-Ala-Asn-MCA as substrate preincubated with protein followed by substrate addition measured every 2 mins for 60 mins by microplate reader analysis
ASSAY_READOUT: pIC50
Would you please state pIC50, meaning minus log10 of the concentration in mol/L, as a bare number?

Q: Any idea what its pIC50 is? The molecule is COc1cccc(-c2ccc(CN([C@H](C)C(=O)N[C@H](C#N)CC(N)=O)S(C)(=O)=O)cc2)c1
A: 5.23

Q: Quick one: pIC50 for CC[C@@H](C(=O)N[C@H](C#N)CC(N)=O)N(Cc1ccc(-c2cccc(F)c2F)cc1)S(C)(=O)=O ?
A: 5.23

Q: Using the record for CCCS(=O)(=O)N(Cc1ccc(-c2cccc(F)c2F)cc1)[C@@H](C)C(=O)N[C@H](C#N)CC(N)=O , report its pIC50.
A: 5.17

Q: GET /values?readout=pIC50&item= C[C@@H](C(=O)N[C@H](C#N)CC(N)=O)N(Cc1ccc(-c2ccccc2F)cc1)S(C)(=O)=O
A: 6.45

Q: Bench note: what pIC50 did CC(C)CS(=O)(=O)N(Cc1ccc(-c2cccc(F)c2)cc1)[C@@H](C)C(=O)N[C@H](C#N)CC(N)=O show?
A: 5.64

Q: Param item = C[C@@H](C(=O)N[C@H](C#N)CC(N)=O)N(Cc1ccc(-c2cccc(F)c2F)cc1)S(C)(=O)=O ; retrieve measured pIC50.
A: 6.49

Q: Given C[C@H](C(=O)N[C@H](C#N)CC(N)=O)N(Cc1ccc(-c2cccc(F)c2F)cc1)S(C)(=O)=O , state its recorded pIC50.
A: 5.84

Q: Please look up its pIC50: C[C@H](C(=O)N[C@H](C#N)CC(N)=O)N(Cc1ccc(-c2cccc(F)c2)cc1)S(C)(=O)=O
A: 5.65

Q: # lookup: pIC50 of CC(C)Oc1cccc(-c2ccc(CN([C@@H](C)C(=O)N[C@H](C#N)CC(N)=O)S(C)(=O)=O)cc2)c1
A: 6.05

Q: pIC50 for C[C@@H](C(=O)N[C@H](C#N)CC(N)=O)N(Cc1ccc(-c2cc(F)cc(F)c2)cc1)S(C)(=O)=O ?
A: 5.87

Q: Fill in the blank: the reported pIC50 of C[C@H](C(=O)N[C@H](C#N)CC(N)=O)N(Cc1ccc(-c2cc(F)cc(F)c2)cc1)S(C)(=O)=O is ____.
A: 5.03

Q: Quick one: pIC50 for CCC[C@@H](C(=O)N[C@H](C#N)CC(N)=O)N(Cc1ccc(-c2cccc(F)c2)cc1)S(C)(=O)=O ?
A: 5.36

Q: Need pIC50, item C[C@@H](C(=O)N[C@H](C#N)CC(N)=O)N(Cc1ccc(-c2ccc(F)c(F)c2)cc1)S(C)(=O)=O
A: 6.60

----------
Assignment: determine reported solubility kinetic at 1.5 h for the given compounds.
assay: Kinetic solubility of compound in pH 7.4 PBS buffer after 90 mins by plate reader analysis; assay type: physicochemical; details: read-out: Kinetic_solubility
I only need the number, in µM, no unit after it.

Q: Item C[C@@H](C(=O)N[C@H](C#N)CC(N)=O)N(Cc1ccc(-c2cccc(F)c2)cc1)S(C)(=O)=O has what recorded solubility kinetic at 1.5 h?
A: 185

Q: // lookup solubility kinetic at 1.5 h for C[C@@H](C(=O)N[C@H](C#N)CC(N)=O)N(Cc1ccc(-c2cccc(F)c2F)cc1)S(C)(=O)=O
A: 181

Q: Which solubility kinetic at 1.5 h reading was recorded for the compound COc1cccc(-c2ccc(CN([C@@H](C)C(=O)N[C@H](C#N)CC(N)=O)S(C)(=O)=O)cc2)c1 ?
A: 193

----------
target: Legumain (Homo sapiens, UniProt Q99538); assay: Inhibition of recombinant human legumain using Z-Ala-Ala-Asn-MCA as substrate preincubated with protein followed by substrate addition measured every 2 mins for 60 mins by microplate reader analysis
Sequence (Q99538 whole entry): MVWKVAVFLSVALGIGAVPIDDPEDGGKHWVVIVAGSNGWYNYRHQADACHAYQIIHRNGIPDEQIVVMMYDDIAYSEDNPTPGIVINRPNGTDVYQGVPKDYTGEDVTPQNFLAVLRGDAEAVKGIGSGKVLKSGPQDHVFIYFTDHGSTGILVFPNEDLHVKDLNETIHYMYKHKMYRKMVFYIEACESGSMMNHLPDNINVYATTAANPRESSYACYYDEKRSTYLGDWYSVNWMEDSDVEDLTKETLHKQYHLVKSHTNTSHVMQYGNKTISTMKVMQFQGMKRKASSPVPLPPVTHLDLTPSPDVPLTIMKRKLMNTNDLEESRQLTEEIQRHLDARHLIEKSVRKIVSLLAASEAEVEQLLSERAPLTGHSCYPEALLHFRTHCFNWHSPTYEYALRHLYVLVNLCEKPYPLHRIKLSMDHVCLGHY
ASSAY_READOUT: IC50 (nM)
Value expressed in nM; do not type the unit.

Q: Requested read-out: IC50. Entry: CC(C(=O)N[C@H](C#N)CC(N)=O)N(Cc1ccc(-c2cccc(Cl)c2)cc1)S(C)(=O)=O (mixture of isomers)
A: 425

Q: Record request: IC50 value, item CCS(=O)(=O)N(Cc1ccc(-c2cccc(F)c2F)cc1)[C@@H](C)C(=O)N[C@H](C#N)CC(N)=O
A: 1090

Q: Report IC50 for COc1cccc(-c2ccc(CN([C@@H](C)C(=O)N[C@H](C#N)CC(N)=O)S(C)(=O)=O)cc2)c1 please.
A: 378

Q: GET /values?readout=IC50&item= CCC[C@@H](C(=O)N[C@H](C#N)CC(N)=O)N(Cc1ccc(-c2cccc(F)c2F)cc1)S(C)(=O)=O
A: 7750

Q: Using the record for C[C@H](C(=O)N[C@H](C#N)CC(N)=O)N(Cc1ccc(-c2ccc(F)c(F)c2)cc1)S(C)(=O)=O , report its IC50.
A: 6300

Q: Suppose we examine the molecule CCOc1cccc(-c2ccc(CN([C@@H](C)C(=O)N[C@H](C#N)CC(N)=O)S(C)(=O)=O)cc2)c1 ; what IC50 value has been reported?
A: 586

Q: What value of IC50 has been reported for the following molecule? C[C@@H](C(=O)N[C@H](C#N)CC(N)=O)N(Cc1ccc(-c2cccc(F)c2)cc1)S(C)(=O)=O
A: 128

Q: Need IC50 of CC(C)Oc1cccc(-c2ccc(CN([C@H](C)C(=O)N[C@H](C#N)CC(N)=O)S(C)(=O)=O)cc2)c1 , thanks.
A: 5050

----------
experiment: Intrinsic clearance in mouse liver microsomes at 1 uM incubated for 50 mins by LC-MS/MS method in presence of NADPH; assay type: ADME; details: read-out: CLH
For each record, write down the corresponding microsomal CLint at 1 µM.
Write the value in µL/min/mg as a bare number.

Q: Which microsomal CLint at 1 µM reading was recorded for the compound COc1cccc(-c2ccc(CN([C@@H](C)C(=O)N[C@H](C#N)CC(N)=O)S(C)(=O)=O)cc2)c1 ?
A: 24

Q: Need microsomal CLint at 1 µM, item C[C@@H](C(=O)N[C@H](C#N)CC(N)=O)N(Cc1ccc(-c2cccc(F)c2)cc1)S(C)(=O)=O
A: 4

Q: Given the compound C[C@@H](C(=O)N[C@H](C#N)CC(N)=O)N(Cc1ccc(-c2cccc(F)c2F)cc1)S(C)(=O)=O , what is its reported microsomal CLint at 1 µM?
A: 3
